Every entry's value here was drawn from patent US5885987A.

- assayTarget: LTD4 receptor (Cavia porcellus)
- Construct: guinea pig pulmomembranous protein; from tissue; host or cells: guinea pig lung membranes
- Sequence (Q2NNR5 1-340): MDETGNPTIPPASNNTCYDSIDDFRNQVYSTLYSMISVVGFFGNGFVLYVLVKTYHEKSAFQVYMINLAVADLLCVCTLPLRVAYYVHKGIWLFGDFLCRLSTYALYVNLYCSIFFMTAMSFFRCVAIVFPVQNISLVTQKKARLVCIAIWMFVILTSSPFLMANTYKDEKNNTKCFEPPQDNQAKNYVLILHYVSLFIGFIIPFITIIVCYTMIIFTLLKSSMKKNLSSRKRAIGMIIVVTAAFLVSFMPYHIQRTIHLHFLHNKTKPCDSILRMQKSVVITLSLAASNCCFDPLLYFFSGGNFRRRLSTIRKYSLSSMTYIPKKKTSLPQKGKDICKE
- measurementNotes: LTD4 receptor binding inhibition test ([^3 H]leukotriene D4, guinea pig pulmomembranous protein)
- assayConditions: read-out: LTD4 receptor, dissociation constant KD
assayMetric: Kd (nM)
Reply with just the number (in nM).

| sampleSmiles | measValue |
| --- | --- |
| CC1(C)C(=O)Nc2cc(OC(=O)c3ccc(OCc4ccc5ccccc5n4)cc3)ccc21 | 428 |
| Cc1ccc(OCc2cccc(OCc3ccc4ccccc4n3)c2)c2ccc(=O)[nH]c12 | 1560 |
| CC1(C)C(=O)Nc2ccc(OCc3cccc(OCc4ccc5ccccc5n4)c3)cc21 | 215 |
| Cc1ccc(OCc2cccc(OCc3ccc4ccccc4n3)c2)c2cc(-c3nn[nH]n3)c(=O)[nH]c12 | 335 |
| O=C1NCCCc2cc(OCc3cccc(OCc4ccc5ccccc5n4)c3)ccc21 | 26 |

Look up Kd with LTD4 receptor (Cavia porcellus) for this molecule: O=C1CSc2cc(OCc3cccc(/C=C/c4ccc5ccc(Cl)cc5n4)c3)ccc2N1 13

Look up Kd with LTD4 receptor (Cavia porcellus) for this molecule: O=C1NCCCc2cc(OCc3ccc(OCc4ccc5ccccc5n4)cc3)ccc21 115

Look up Kd with LTD4 receptor (Cavia porcellus) for this molecule: CCCCCCc1cc(OCc2ccc(OCc3ccc4ccccc4n3)cc2)cc2c1C(C)(C)C(=O)N2 3100
